Assign pIC50 to each entry below.
- targetUnderTest: DQw6
- assayExplanation: Inhibition of binding of iodinated indicator peptide P104 to affinity purified HLA DQw6
- Set-up: species or system human
- assayConditions: tested 0,33-10 μM
Where no end group is shown, it is not given here.
Answers are plain numbers, as −log10 of the molar value.

Consider the worked cases shown below.
[
  {
    "substance": "VVVGAAGVGKS [P89]",
    "property": "pIC50",
    "valueReported": 5.00
  },
  {
    "substance": "VVGAAGVGKS [P88]",
    "property": "pIC50",
    "valueReported": 5.05
  },
  {
    "substance": "VVVGAAGVGKSA [p91]",
    "property": "pIC50",
    "valueReported": 5.89
  }
]

Now let's try a different one.
Task: // pIC50 lookup, key: VVGAAGVGKSA [p90]
Result: 5.00
